target: DR4G102: Human HLA-DRA1*01:02/DRB1*01:01 ECD with collagen II peptide CII_257-273 (human); test: MSD ECL; antigen coated; protocol of Example 3
measurement label: ECL signal (ECL)
Express your answer in ECL, writing the number without its unit.

Supply ECL signal value. Item: DR4B6 (antibody, V domains shown, also called L243 re-engineered as IgG2sigma) VH: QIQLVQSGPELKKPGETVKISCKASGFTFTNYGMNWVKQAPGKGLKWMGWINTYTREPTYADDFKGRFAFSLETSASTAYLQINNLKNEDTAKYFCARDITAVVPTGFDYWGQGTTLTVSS VL: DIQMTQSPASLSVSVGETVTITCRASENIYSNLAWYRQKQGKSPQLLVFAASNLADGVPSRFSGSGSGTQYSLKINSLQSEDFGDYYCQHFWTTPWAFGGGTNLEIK 693000
